Experiment: xn = mol fraction of the nth substance listed
Conditions: 308 K; 101 kPa; x1 = 0.1
recorded metric: viscosity (mPa·s)
Numeric only. Scale: mPa·s

[
  {
    "molecule": "CCCCCCCCCCCCCCCCCC(=O)OC + C1CCCCC1",
    "scale unit": "mPa·s",
    "viscosity": 1.25
  },
  {
    "molecule": "CCCCCCCCCCCCCCCCCC(=O)OC + ClC(Cl)=C(Cl)Cl",
    "scale unit": "mPa·s",
    "viscosity": 1.47
  }
]

Exam item: Complete the entry with viscosity for CCCCCCCCCCCCCCCCCC(=O)OC + ClC=C(Cl)Cl
Marked response: 0.93

Exam item: Complete the entry with viscosity for CCCCCCCCCCCCCCCCCC(=O)OC + CCCCCC
Marked response: 0.59

* * *

The reader will find reported viscosity values listed item by item below.
Assay: xn = mol fraction of the nth substance listed
Details: 313 K; 101 kPa; x1 = 0.2
Numeric only. Scale: mPa·s

Exam item: Complete the entry with viscosity for CCCCCCCCCCCCCCCCCC(=O)OC + ClC(Cl)=C(Cl)Cl
Marked response: 1.76

Exam item: Complete the entry with viscosity for CCCCCCCCCCCCCCCCCC(=O)OC + C1CCCCC1
Marked response: 1.58

Exam item: Complete the entry with viscosity for CCCCCCCCCCCCCCCCCC(=O)OC + CCCCCC
Marked response: 0.85

Exam item: Complete the entry with viscosity for CCCCCCCCCCCCCCCCCC(=O)OC + ClC=C(Cl)Cl
Marked response: 1.4

* * *

Test: xn = mol fraction of the nth substance listed
Details: 303 K; 101 kPa; x1 = 0.05
± gives the uncertainty stated by the source.
recorded metric: viscosity

Sample answers from the record:
[
  {
    "compound": "CCCCCCCCCCCCCCCCCC(=O)OC + ClC(Cl)=C(Cl)Cl",
    "recorded metric": "viscosity",
    "result value": "1.33 ± 0.16 mPa·s"
  },
  {
    "compound": "CCCCCCCCCCCCCCCCCC(=O)OC + C1CCCCC1",
    "recorded metric": "viscosity",
    "result value": "1.14 ± 0.02 mPa·s"
  },
  {
    "compound": "CCCCCCCCCCCCCCCCCC(=O)OC + ClC=C(Cl)Cl",
    "recorded metric": "viscosity",
    "result value": "0.74 ± 0.02 mPa·s"
  }
]

// moving on: another record for viscosity
Exam item: Complete the entry with viscosity for CCCCCCCCCCCCCCCCCC(=O)OC + CCCCCC
Marked response: 0.46 ± 0.01 mPa·s

* * *

Assay: xn = mol fraction of the nth substance listed
Settings: 298 K; 101 kPa; x1 = 0.15
The reader will find reported viscosity values listed item by item below.
Numeric only. Scale: mPa·s

Sample answers from the record:
[
  {
    "compound": "CCCCCCCCCCCCCCCCCC(=O)OC + C1CCCCC1",
    "viscosity (mPa·s)": 1.73
  },
  {
    "compound": "CCCCCCCCCCCCCCCCCC(=O)OC + ClC(Cl)=C(Cl)Cl",
    "viscosity (mPa·s)": 1.8
  },
  {
    "compound": "CCCCCCCCCCCCCCCCCC(=O)OC + CCCCCC",
    "viscosity (mPa·s)": 0.85
  }
]

Exam item: Complete the entry with viscosity for CCCCCCCCCCCCCCCCCC(=O)OC + ClC=C(Cl)Cl
Marked response: 1.37

* * *

Assay: xn = mol fraction of the nth substance listed
Conditions: 308 K; 101 kPa; x1 = 0.2
± gives the uncertainty stated by the source.
The reader will find reported viscosity values listed item by item below.

Sample answers from the record:
[
  {
    "compound": "CCCCCCCCCCCCCCCCCC(=O)OC + CCCCCC",
    "result value": "0.92 ± 0.02 mPa·s"
  },
  {
    "compound": "CCCCCCCCCCCCCCCCCC(=O)OC + C1CCCCC1",
    "result value": "1.71 ± 0.04 mPa·s"
  },
  {
    "compound": "CCCCCCCCCCCCCCCCCC(=O)OC + ClC(Cl)=C(Cl)Cl",
    "result value": "1.89 ± 0.23 mPa·s"
  }
]

Exam item: Complete the entry with viscosity for CCCCCCCCCCCCCCCCCC(=O)OC + ClC=C(Cl)Cl
Marked response: 1.5 ± 0.03 mPa·s

* * *

The reader will find reported viscosity values listed item by item below.
Assay: xn = mol fraction of the nth substance listed
Conditions: 313 K; 101 kPa; x1 = 0.15
Numeric only. Scale: mPa·s

Exam item: Complete the entry with viscosity for CCCCCCCCCCCCCCCCCC(=O)OC + ClC=C(Cl)Cl
Marked response: 1.14

* * *

The reader will find reported viscosity values listed item by item below.
Assay: xn = mol fraction of the nth substance listed
Conditions: 298.15 K; 101.33 kPa; x2 = 0.7
± gives the uncertainty stated by the source.
Could you kindly put the unit after your number?

Exam item: Complete the entry with viscosity for C[N+](C)(C)CCO.[Cl-] + CC(O)CO
Marked response: 36 ± 4 mPa·s

Exam item: Complete the entry with viscosity for C[N+](C)(C)CCO.[Cl-] + OCCO
Marked response: 48 ± 5 mPa·s

Exam item: Complete the entry with viscosity for O=Cc1ccccc1 + CS(C)=O
Marked response: 1.801 ± 0.017 mPa·s

Exam item: Complete the entry with viscosity for C[N+](C)(C)CCO.[Cl-] + OCC(O)CO
Marked response: 301 ± 34 mPa·s

* * *

The reader will find reported viscosity values listed item by item below.
Assay: xn = mol fraction of the nth substance listed
Details: 308 K; 101 kPa; x1 = 0.05
Numeric only. Scale: mPa·s

Sample answers from the record:
[
  {
    "compound": "CCCCCCCCCCCCCCCCCC(=O)OC + ClC(Cl)=C(Cl)Cl",
    "viscosity / mPa·s": 1.24
  },
  {
    "compound": "CCCCCCCCCCCCCCCCCC(=O)OC + CCCCCC",
    "viscosity / mPa·s": 0.44
  },
  {
    "compound": "CCCCCCCCCCCCCCCCCC(=O)OC + ClC=C(Cl)Cl",
    "viscosity / mPa·s": 0.71
  }
]

Exam item: Complete the entry with viscosity for CCCCCCCCCCCCCCCCCC(=O)OC + C1CCCCC1
Marked response: 1.06

* * *

Assay: xn = mol fraction of the nth substance listed
Details: 308 K; 101 kPa; x1 = 0.15
recorded metric: viscosity (mPa·s)
Numeric only. Scale: mPa·s

[
  {
    "compound": "CCCCCCCCCCCCCCCCCC(=O)OC + C1CCCCC1",
    "viscosity, mPa·s": 1.46
  },
  {
    "compound": "CCCCCCCCCCCCCCCCCC(=O)OC + ClC=C(Cl)Cl",
    "viscosity, mPa·s": 1.21
  },
  {
    "compound": "CCCCCCCCCCCCCCCCCC(=O)OC + CCCCCC",
    "viscosity, mPa·s": 0.74
  }
]

Exam item: Complete the entry with viscosity for CCCCCCCCCCCCCCCCCC(=O)OC + ClC(Cl)=C(Cl)Cl
Marked response: 1.58

* * *

Settings: 308.15 K; 101 kPa
± gives the uncertainty stated by the source.
recorded metric: viscosity
Could you kindly put the unit after your number?

Exam item: Complete the entry with viscosity for NCCO.O=CO
Marked response: 115.4 ± 8.3 mPa·s

Exam item: Complete the entry with viscosity for O=C(O)C(Cl)Cl
Marked response: 4.779 ± 0.2 mPa·s

Exam item: Complete the entry with viscosity for O=Cc1ccccc1
Marked response: 1.215 ± 0.033 mPa·s

Exam item: Complete the entry with viscosity for OCCOCCO
Marked response: 17.26 ± 0.7 mPa·s

* * *

The reader will find reported viscosity values listed item by item below.
Experiment: xn = mol fraction of the nth substance listed
Details: 313 K; 101 kPa; x1 = 0.3
Numeric only. Scale: mPa·s

Sample answers from the record:
[
  {
    "molecule": "CCCCCCCCCCCCCCCCCC(=O)OC + CCCCCC",
    "scale unit": "mPa·s",
    "viscosity": 1.12
  },
  {
    "molecule": "CCCCCCCCCCCCCCCCCC(=O)OC + ClC=C(Cl)Cl",
    "scale unit": "mPa·s",
    "viscosity": 2.01
  },
  {
    "molecule": "CCCCCCCCCCCCCCCCCC(=O)OC + ClC(Cl)=C(Cl)Cl",
    "scale unit": "mPa·s",
    "viscosity": 2.2
  }
]

Exam item: Complete the entry with viscosity for CCCCCCCCCCCCCCCCCC(=O)OC + C1CCCCC1
Marked response: 2.02

* * *

Test: xn = mol fraction of the nth substance listed
Details: 298 K; 101 kPa; x1 = 0.05
The reader will find reported viscosity values listed item by item below.
Numeric only. Scale: mPa·s

Sample answers from the record:
[
  {
    "compound": "CCCCCCCCCCCCCCCCCC(=O)OC + CCCCCC",
    "viscosity / mPa·s": 0.48
  },
  {
    "compound": "CCCCCCCCCCCCCCCCCC(=O)OC + ClC(Cl)=C(Cl)Cl",
    "viscosity / mPa·s": 1.41
  },
  {
    "compound": "CCCCCCCCCCCCCCCCCC(=O)OC + ClC=C(Cl)Cl",
    "viscosity / mPa·s": 0.77
  }
]

// moving on: another record for viscosity
Exam item: Complete the entry with viscosity for CCCCCCCCCCCCCCCCCC(=O)OC + C1CCCCC1
Marked response: 1.22
